- Test system: HUVEC cells
- Experimental Protocol: CCK-8 cell viability: alleviation of proliferative toxicity of anti-tumor agents on HUVEC cells (Tables 7-1, 7-2)
- Assay type: cell-based
- Reported Conditions: Homo sapiens, 24 h, Apatinib (10 μM), NO-NSAID 100 μM, percentage increase in viable cells vs anti-tumor agent alone, read-out: Response rate % (average)
Quantity Name: activation at 100 µM (%)
Reply numerically in %, unit not repeated.

The molecule listed as CC(=O)Oc1ccccc1C(=O)OCOC(=O)CCCCCO[N+](=O)[O-] [Compound A3] has a reported activation at 100 µM of 15

The molecule listed as CC(=O)Oc1ccccc1C(=O)Oc1cccc(CO[N+](=O)[O-])c1 [Compound A2] has a reported activation at 100 µM of 56

The molecule listed as COc1ccc2cc(C(C)C(=O)OCCCCO[N+](=O)[O-])ccc2c1 (stereo not shown) [Compound A5] has a reported activation at 100 µM of 59

The molecule listed as CC(C(=O)OCCCO[N+](=O)[O-])c1ccc(-c2ccccc2)c(F)c1 (stereo not shown) [Compound A1] has a reported activation at 100 µM of 43

====

For each entry below, report its responders at 1 % value.
- Test system: hand-foot syndrome induced by anti-tumor agents
- Experimental Protocol: Prevention of hand-foot syndrome induced by anti-tumor agents in rats, NO-NSAID ointment on hind paws (Table 2-2)
- Type: in vivo, SD rats
- Reported Conditions: Rattus norvegicus, topical, 120 h, Sorafenib 80 mg/kg once a day; ointment 1% wt; Days 5; read-out: Control rate
Reply numerically in %, unit not repeated.

The compound listed as CC(C(=O)OCCCO[N+](=O)[O-])c1ccc(-c2ccccc2)c(F)c1 (stereo not drawn) has a reported responders at 1 % of 42.9

The compound listed as "CC(=O)Oc1ccccc1C(=O)OCc1no[n+]([O-])c1C(N)=O" has a reported responders at 1 % of 66.7

The compound listed as COc1ccc2cc(C(C)C(=O)OCCCCO[N+](=O)[O-])ccc2c1 (stereo not drawn) has a reported responders at 1 % of 50

The compound listed as "CC(=O)Oc1ccccc1C(=O)OCOC(=O)CCCCCO[N+](=O)[O-]" has a reported responders at 1 % of 50

The compound listed as COc1ccc2cc(C(C)C(=O)OCC(CO[N+](=O)O)C[N+](=O)[O-])ccc2c1 (stereo not drawn) has a reported responders at 1 % of 28.6

The compound listed as "CC(=O)Oc1ccccc1C(=O)Oc1cccc(CO[N+](=O)[O-])c1" has a reported responders at 1 % of 50

====

For each entry below, report its NO-NSAID response rate % (average) value.
- Tested on: HUVEC cells
- Experimental Protocol: CCK-8 cell viability: alleviation of proliferative toxicity of anti-tumor agents on HUVEC cells (Tables 7-1, 7-2)
- Type: cell-based
- Reported Conditions: Dabrafenib (10 μM), NO-NSAID 0.1 μM
Show the value, then the unit it is measured in.

The compound listed as CC(=O)Oc1ccccc1C(=O)Oc1cccc(CO[N+](=O)[O-])c1 [Compound A2] has a reported NO-NSAID response rate % (average) of 23%

The compound listed as CC(C(=O)OCCCO[N+](=O)[O-])c1ccc(-c2ccccc2)c(F)c1 (centres unmarked) [Compound A1] has a reported NO-NSAID response rate % (average) of 22%

The compound listed as CC(C)Cc1ccc(C(C)C(=O)OCO/N=[N+](\[O-])N(C)C)cc1 (centres unmarked) [Compound A4] has a reported NO-NSAID response rate % (average) of 20%

The compound listed as CC(=O)Oc1ccccc1C(=O)OCOC(=O)CCCCCO[N+](=O)[O-] [Compound A3] has a reported NO-NSAID response rate % (average) of 25%

The compound listed as COc1ccc2cc(C(C)C(=O)OCCCCO[N+](=O)[O-])ccc2c1 (centres unmarked) [Compound A5] has a reported NO-NSAID response rate % (average) of 27%
